test_name: Apparent permeability across apical to basolateral side in MDCK2-MDR1 cells at 5 to 75 uM by UV-visible spectroscopic method
Format: ADME, cell-based, Canis lupus familiaris
run_conditions: dog, MDCK-MDR1
What Papp A→B at up to 75 µM was measured for each of the following?
Numbers only, in ×10⁻⁶ cm/s.

Would you mind listing Papp A→B at up to 75 µM for each of the following molecules?
1. Cc1c(C)c2ccc(OCC3CCCN(C)C3)cc2oc1=O.Cl (racemic)
2. Cc1c(C)c2ccc(OCC3CCCN(Cc4cccc(Br)c4)C3)cc2oc1=O.Cl (racemic)

Ans:
[22.3, 0.84]

Q: # query: Papp A→B at up to 75 µM of entry Cc1c(C)c2ccc(OCC3CCCN(Cc4ccccc4)C3)cc2oc1=O.Cl (racemic)
Ans: 24.3

====

measured_on: Cholinesterase (Equus caballus) (UniProt P81908)
Sequence (P81908 whole entry): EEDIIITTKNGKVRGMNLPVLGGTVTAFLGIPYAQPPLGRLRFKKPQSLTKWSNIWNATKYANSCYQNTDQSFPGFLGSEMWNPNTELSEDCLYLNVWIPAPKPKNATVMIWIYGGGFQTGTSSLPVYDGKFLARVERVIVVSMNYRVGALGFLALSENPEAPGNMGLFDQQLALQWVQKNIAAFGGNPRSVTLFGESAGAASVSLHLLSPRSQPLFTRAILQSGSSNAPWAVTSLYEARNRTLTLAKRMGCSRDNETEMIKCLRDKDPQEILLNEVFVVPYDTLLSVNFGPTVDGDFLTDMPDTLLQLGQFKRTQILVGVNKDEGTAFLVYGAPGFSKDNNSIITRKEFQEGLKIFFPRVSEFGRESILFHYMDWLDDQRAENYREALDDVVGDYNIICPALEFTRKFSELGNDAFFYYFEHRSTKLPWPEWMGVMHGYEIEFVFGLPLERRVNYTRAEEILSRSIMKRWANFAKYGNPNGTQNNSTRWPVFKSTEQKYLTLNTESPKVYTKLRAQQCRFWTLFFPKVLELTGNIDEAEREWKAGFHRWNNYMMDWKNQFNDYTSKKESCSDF
test_name: Inhibition of equine serum BChE at 10 uM using butyrylthiocholine iodide as substrate preincubated for 20 mins followed by substrate addition measured for 5 mins by spectrophotometric Ellman's method relative to control
1 means recorded inhibition is 30% or above; 0 means it is below 30%.

Q: Determine whether measured inhibition meets or exceeds 30% for Cc1c(C)c2ccc(OCC3CCCN(C)C3)cc2oc1=O.Cl (racemic)
Ans: 0

Q: Could you tell me if the measured inhibition of `Cc1c(C)c2ccc(OC3CCN(Cc4ccc(C#N)cc4)CC3)cc2oc1=O` reaches 30% or more?
Ans: 1

***
Q: In plain terms: is recorded inhibition at least 30% for `CCCCN1CCC(Oc2ccc3c(C)c(C)c(=O)oc3c2)CC1` ?
Ans: 1

Q: Check this compound for inhibition at or above 30%: Cc1c(C)c2ccc(OCC3CCCN(Cc4ccc(S(C)(=O)=O)cc4)C3)cc2oc1=O (racemic)
Ans: 0

Q: Exam item: decide whether the reported inhibition for `Cc1c(C)c2ccc(OCC3CCN(C)CC3)cc2oc1=O` is at least 30%.
Ans: 0

Q: Is reported inhibition greater than or equal to 30% here: Cc1c(C)c2ccc(OCC3CCCN(Cc4ccc(C#N)cc4)C3)cc2oc1=O (racemic)
Ans: 1

Q: Decide: is the reported value of inhibition for `Cc1c(C)c2ccc(OCC3CCN(Cc4ccc(C#N)cc4)CC3)cc2oc1=O` equal to or greater than 30%?
Ans: 0

Q: Could you verify whether the entry `Cc1c(C)c2ccc(OC3CCN(CC(=O)c4ccccc4)CC3)cc2oc1=O` shows inhibition of no less than 30%?
Ans: 1

Q: Can `Cc1c(C)c2ccc(OC3CCN(C)CC3)cc2oc1=O` be said to have inhibition at or above 30%?
Ans: 0

====

test_name: Lipophilicity index, Log K of the compound at 1 mM by RP-HPLC method
Type: physicochemical
run_conditions: 1000 µM
Answer each item with its documented log K.
One number for each entry.

Q: Fill in: log K of `CN(Cc1ccccc1)Cc1ccc(COc2ccc3c(CO)cc(=O)oc3c2)cc1` is ___
Ans: 1.87

Q: Can you share its log K? I mean this compound: Cc1c(C)c2ccc(OCC3CCCN(C)C3)cc2oc1=O.Cl (racemic)
Ans: 1.14

Q: Record request: log K value, item `Cc1c(C)c2ccc(OCC3CCN(Cc4ccccc4)CC3)cc2oc1=O.Cl`
Ans: 1.98

Next item in the queue.
Q: Given the entry Cc1c(C)c2ccc(OCC3CCCN(Cc4ccccc4)C3)cc2oc1=O.Cl (racemic) , report its measured log K.
Ans: 2.01

====

test_name: Kinetic aqueous solubility of the compound in Tris-HCl buffer at pH 7.4 by turbidimetric method
Format: physicochemical
run_conditions: Tris-HCl buffer, read-out: Kinetic_solubility
property_name: solubility kinetic (µM)
One number for each entry, in µM.

Q: What value of solubility kinetic has been recorded for this entry: Cc1c(C)c2ccc(OCC3CCCN(Cc4ccccc4)C3)cc2oc1=O.Cl (racemic)
Ans: 119

====

measured_on: Acetylcholinesterase (Electrophorus electricus)
Sequence (O42275 whole entry): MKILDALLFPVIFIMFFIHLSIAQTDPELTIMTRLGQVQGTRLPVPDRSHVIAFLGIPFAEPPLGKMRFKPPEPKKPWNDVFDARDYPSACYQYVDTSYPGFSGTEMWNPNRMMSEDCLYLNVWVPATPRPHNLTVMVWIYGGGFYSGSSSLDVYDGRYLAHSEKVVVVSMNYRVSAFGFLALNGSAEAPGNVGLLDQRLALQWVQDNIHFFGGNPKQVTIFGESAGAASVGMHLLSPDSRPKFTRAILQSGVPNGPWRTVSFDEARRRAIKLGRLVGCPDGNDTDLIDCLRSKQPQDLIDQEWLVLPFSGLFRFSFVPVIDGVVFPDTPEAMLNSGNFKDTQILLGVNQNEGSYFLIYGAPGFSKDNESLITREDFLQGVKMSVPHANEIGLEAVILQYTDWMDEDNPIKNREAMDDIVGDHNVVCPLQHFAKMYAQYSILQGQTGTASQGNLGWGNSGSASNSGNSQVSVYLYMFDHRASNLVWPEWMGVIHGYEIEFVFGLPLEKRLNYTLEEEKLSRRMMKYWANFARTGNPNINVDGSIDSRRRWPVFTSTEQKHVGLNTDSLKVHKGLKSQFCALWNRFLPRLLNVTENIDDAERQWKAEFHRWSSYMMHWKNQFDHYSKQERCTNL
property_name: pKi
Answers are plain numbers, as −log10 of the molar value.

Q: What measured pKi goes with Cc1c(C)c2ccc(OCC3CCCN(Cc4ccccc4)C3)cc2oc1=O.Cl (racemic) ?
Ans: 5.86

====

test_name: Efflux ratio of apparent permeability across basolateral to apical side over apical to basolateral side in MDCK2-MDR1 cells at 5 to 75 uM by UV-visible spectroscopic method
Type: ADME, cell-based, Canis lupus familiaris
run_conditions: dog, MDCK-MDR1
Would you mind telling me the reported efflux ratio at up to 75 µM of each entry?
One number for each entry.

Q: What value of efflux ratio at up to 75 µM has been recorded for this entry: Cc1c(C)c2ccc(OCC3CCCN(C)C3)cc2oc1=O.Cl (racemic)
Ans: 0.9

Below are 2 compounds. Give each one its efflux ratio at up to 75 µM.
1. Cc1c(C)c2ccc(OCC3CCCN(Cc4cccc(Br)c4)C3)cc2oc1=O.Cl (racemic)
2. Cc1c(C)c2ccc(OCC3CCCN(Cc4ccccc4)C3)cc2oc1=O.Cl (racemic)

Ans:
1: 2.56; 2: 0.61

====

Acetylcholinesterase (Electrophorus electricus) data, read-out IC50
Answers are plain numbers, in nM.

Q: What value of IC50 has been recorded for this entry: `Cc1c(C)c2ccc(OCC3CCN(Cc4cccc(Cl)c4)CC3)cc2oc1=O`
Ans: 1030

Could you report IC50 for every entry in the following list?
1. Cc1c(C)c2ccc(OCC3CCCN(C)C3)cc2oc1=O.Cl (racemic)
2. Cc1c(C)c2ccc(OC3CCN(C)CC3)cc2oc1=O
3. Cc1c(C)c2ccc(OCC3CCN(Cc4ccc(C#N)cc4)CC3)cc2oc1=O
4. Cc1c(C)c2ccc(OCC3CCCN(Cc4ccccc4)C3)cc2oc1=O.Cl (racemic)
5. Cc1c(C)c2ccc(OCC3CCN(Cc4ccc(Cl)cc4)CC3)cc2oc1=O
6. Cc1c(C)c2ccc(OC3CCN(Cc4ccc(C#N)cc4)CC3)cc2oc1=O

Ans:
[800, 1300, 1810, 1030, 9570, 970]

Batch lookup, IC50 per entry.
1. Cc1c(C)c2ccc(OCC3CCCN(Cc4ccc(C#N)cc4)C3)cc2oc1=O (racemic)
2. Cc1c(C)c2ccc(OCC3CCCN(Cc4ccccc4)C3)cc2oc1=O (single isomer, unassigned; (-))
3. Cc1c(C)c2ccc(OCC3CCCN(Cc4cccc(Br)c4)C3)cc2oc1=O (single isomer, unassigned; (+))
4. Cc1c(C)c2ccc(OC3CCN(Cc4ccccc4)CC3)cc2oc1=O
5. Cc1c(C)c2ccc(OCC3CCN(Cc4ccccc4)CC3)cc2oc1=O.Cl
6. Cc1c(C)c2ccc(OCCCN3CCc4ccccc4C3)cc2oc1=O

Ans:
[2800, 780, 3230, 780, 1660, 1220]

Hi, could you look up IC50 for each item in my list?
1. CCCCN1CCC(Oc2ccc3c(C)c(C)c(=O)oc3c2)CC1
2. Cc1c(C)c2ccc(OC3CCN(CC(=O)c4ccccc4)CC3)cc2oc1=O
3. COc1ccc(CN2CCCC(COc3ccc4c(C)c(C)c(=O)oc4c3)C2)cc1OC (racemic)
4. Cc1c(C)c2ccc(OCC3CCCN(Cc4cccc(Br)c4)C3)cc2oc1=O (single isomer, unassigned; (-))
5. Cc1c(C)c2ccc(OCC3CCCN(Cc4ccc(S(C)(=O)=O)cc4)C3)cc2oc1=O (racemic)
6. Cc1c(C)c2ccc(OCC3CCCN(Cc4ccccc4)C3)cc2oc1=O (stereo in doubt; (+)-5b)
7. Cc1c(C)c2ccc(OCC3CCCN(Cc4ccc(Cl)cc4)C3)cc2oc1=O (racemic)

Ans:
1: 990; 2: 3780; 3: 2210; 4: 1720; 5: 850; 6: 1800; 7: 2890

For every item in the list below, what is its measured IC50?
1. Cc1c(C)c2ccc(OCCCCN3CCc4ccccc4C3)cc2oc1=O
2. Cc1c(C)c2ccc(OC3CCN(Cc4cccc(Cl)c4)CC3)cc2oc1=O
3. Cc1c(C)c2ccc(OCC3CCN(C)CC3)cc2oc1=O
4. Cc1c(C)c2ccc(OC3CCN(Cc4ccc(Cl)cc4)CC3)cc2oc1=O
5. Cc1c(C)c2ccc(OCC3CCCN(Cc4cccc(Br)c4)C3)cc2oc1=O.Cl (racemic)

Ans:
[1150, 1080, 680, 1550, 1910]

====

measured_on: Amine oxidase [flavin-containing] B (Homo sapiens)
Sequence (P27338 whole entry): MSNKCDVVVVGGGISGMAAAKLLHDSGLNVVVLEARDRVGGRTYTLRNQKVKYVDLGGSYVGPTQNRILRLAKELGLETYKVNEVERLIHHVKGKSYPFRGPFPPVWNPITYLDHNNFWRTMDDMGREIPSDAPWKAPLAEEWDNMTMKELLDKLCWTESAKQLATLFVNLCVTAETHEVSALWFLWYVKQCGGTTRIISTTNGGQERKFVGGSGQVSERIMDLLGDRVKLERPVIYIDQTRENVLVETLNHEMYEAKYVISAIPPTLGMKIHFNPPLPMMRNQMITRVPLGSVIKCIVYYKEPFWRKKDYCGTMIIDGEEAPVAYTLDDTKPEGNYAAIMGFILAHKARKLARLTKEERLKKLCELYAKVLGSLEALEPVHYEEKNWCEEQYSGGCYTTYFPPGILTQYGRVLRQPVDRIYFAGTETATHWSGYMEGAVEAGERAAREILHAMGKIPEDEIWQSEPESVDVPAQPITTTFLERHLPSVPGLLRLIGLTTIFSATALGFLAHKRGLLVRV
test_name: Inhibition of human recombinant MAOB expressed in microsomes of baculovirus-infected insect cell using kynuramine as substrate preincubated for 20 mins followed by protein addition measured after 30 mins by fluorescence assay
property_name: IC50 (nM)
Numbers only, in nM.

Some solved entries appear below for comparison.
Q: Recorded IC50 for `Cc1c(C)c2ccc(OCCCCN3CCc4ccccc4C3)cc2oc1=O` with Amine oxidase [flavin-containing] B (Homo sapiens), please?
Ans: 612

Q: Provide the documented IC50 with Amine oxidase [flavin-containing] B (Homo sapiens) as the system for `Cc1c(C)c2ccc(OCC3CCN(Cc4cccc(Cl)c4)CC3)cc2oc1=O`
Ans: 89

Q: Missing value: IC50, Amine oxidase [flavin-containing] B (Homo sapiens), entry `Cc1c(C)c2ccc(OCC3CCN(Cc4ccc(Cl)cc4)CC3)cc2oc1=O` . Fill in?
Ans: 614

Consider the record given below.
Q: GET /values?readout=IC50&system=Amine oxidase [flavin-containing] B (Homo sapiens)&item= Cc1c(C)c2ccc(OCC3CCCN(Cc4ccc(Cl)cc4)C3)cc2oc1=O (racemic)
Ans: 50
